Recorded values, source PubChem BioAssay (EPA / NIEHS).

EXPERIMENT: ATG_EGR_CIS: Attagene CIS-FACTORIAL HepG2 Assay for human Early Growth Response 1 (EGR1) (AID 2282938)
EXPERIMENTAL SETUP: HepG2 Attagene CIS-FACTORIAL EGR reporter mRNA; actives raise or lower the signal
Active and inactive are the calls of the source. Rule for the calls: active = hit-call score of the fitted dose curve at least 0.9, where 1 is the maximum; inactive = score below 0.9.
Outcomes: true (1) for active, false (0) for inactive

- COMPOUND: "C=CCO"
  CLASS NAME: "false (0)"
- COMPOUND: "CCOC(=O)N(C)N=O"
  CLASS NAME: "false (0)"
- COMPOUND: "N#CCNCC#N"
  CLASS NAME: "false (0)"
- COMPOUND: "O=C(NCNC(=O)NC1C(=O)NC(=O)N1CO)NC1C(=O)NC(=O)N1CO (stereo unspecified)"
  CLASS NAME: "false (0)"
- COMPOUND: "O=[N+]([O-])O.O=[N+]([O-])O.[Cd]"
  CLASS NAME: "true (1)"
- COMPOUND: "O=C(NC(=O)c1c(F)cccc1F)Nc1ccc(Oc2ccc(C(F)(F)F)cc2Cl)cc1F"
  CLASS NAME: "false (0)"
- COMPOUND: "CCC(Br)(CC)C(=O)NC(N)=O"
  CLASS NAME: "false (0)"
- COMPOUND: "Oc1ccc(C2(c3ccc(O)cc3)c3ccccc3-c3ccccc32)cc1"
  CLASS NAME: "true (1)"
- COMPOUND: "COC(C)(C)CCC[C@H](C)C/C=C/C(C)=C/C(=O)OC(C)C"
  CLASS NAME: "true (1)"
- COMPOUND: "COc1cc(OC)nc(Oc2cccc(Oc3nc(OC)cc(OC)n3)c2C(=O)O)n1"
  CLASS NAME: "false (0)"
- COMPOUND: "CCOP(=O)(OCC)OCC"
  CLASS NAME: "false (0)"
- COMPOUND: "CCC[N+](=O)[O-]"
  CLASS NAME: "false (0)"
- COMPOUND: "O=S(=O)(O)O"
  CLASS NAME: "false (0)"
- COMPOUND: "CC(C)COP(=O)(OCC(C)C)OCC(C)C"
  CLASS NAME: "false (0)"
- COMPOUND: "C#CC1(O)CCCCC1"
  CLASS NAME: "false (0)"
- COMPOUND: "O=c1[nH]c(Cl)c(Cl)cc1Cl"
  CLASS NAME: "false (0)"
- COMPOUND: "CCC1CCC(=O)O1 (stereo unspecified)"
  CLASS NAME: "false (0)"
- COMPOUND: "N#CCCCl"
  CLASS NAME: "false (0)"
- COMPOUND: "O=C=Nc1ccccc1"
  CLASS NAME: "false (0)"
- COMPOUND: "CCCCCCCCCCCC#N"
  CLASS NAME: "false (0)"
- COMPOUND: "CCCCCCC1CCOC1=O (stereo unspecified)"
  CLASS NAME: "false (0)"
- COMPOUND: "Cc1ncc(C[n+]2csc(CCO)c2C)c(N)n1"
  CLASS NAME: "false (0)"
- COMPOUND: "c1ccc(Nc2ccc3ccccc3c2)cc1"
  CLASS NAME: "false (0)"
- COMPOUND: "CC(=O)c1cc2c(cc1C)C(C)(C)C(C)CC2(C)C (stereo unspecified)"
  CLASS NAME: "false (0)"
- COMPOUND: "Cc1ccccc1CCl"
  CLASS NAME: "false (0)"
- COMPOUND: "O=CNC(N1CCN(C(NC=O)C(Cl)(Cl)Cl)CC1)C(Cl)(Cl)Cl (stereo unspecified)"
  CLASS NAME: "false (0)"
- COMPOUND: "CC(C)(C)C(O)C(Oc1ccc(-c2ccccc2)cc1)n1cncn1 (stereo unspecified)"
  CLASS NAME: "false (0)"
- COMPOUND: "O=C1C=CC(=O)C=C1"
  CLASS NAME: "false (0)"
- COMPOUND: "Nc1ccc([N+](=O)[O-])cc1N"
  CLASS NAME: "false (0)"
- COMPOUND: "C=CCN(CC=C)C(=O)C(Cl)Cl"
  CLASS NAME: "false (0)"
- COMPOUND: "CCCCOP(=O)(O)OCCCC"
  CLASS NAME: "false (0)"
